Biological target: human P2X2/3 receptors (Homo sapiens, UniProt P56373+Q9UBL9)
Construct: expressed in transfected cells; host or cells: human astrocytoma 1321N1 (1312N1 [sic])
Sequence (P56373 whole entry): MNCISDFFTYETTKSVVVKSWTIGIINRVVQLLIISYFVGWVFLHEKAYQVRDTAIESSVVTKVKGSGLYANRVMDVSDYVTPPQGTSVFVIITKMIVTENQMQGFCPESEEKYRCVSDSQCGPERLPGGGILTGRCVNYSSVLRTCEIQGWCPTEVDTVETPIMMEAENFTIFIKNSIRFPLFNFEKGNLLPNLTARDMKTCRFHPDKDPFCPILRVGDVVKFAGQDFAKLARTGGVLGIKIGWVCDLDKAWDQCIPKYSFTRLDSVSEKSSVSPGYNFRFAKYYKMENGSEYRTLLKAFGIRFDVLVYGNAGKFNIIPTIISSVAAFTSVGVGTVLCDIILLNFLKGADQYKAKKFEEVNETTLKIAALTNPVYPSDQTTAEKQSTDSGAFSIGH
Sequence (Q9UBL9 whole entry): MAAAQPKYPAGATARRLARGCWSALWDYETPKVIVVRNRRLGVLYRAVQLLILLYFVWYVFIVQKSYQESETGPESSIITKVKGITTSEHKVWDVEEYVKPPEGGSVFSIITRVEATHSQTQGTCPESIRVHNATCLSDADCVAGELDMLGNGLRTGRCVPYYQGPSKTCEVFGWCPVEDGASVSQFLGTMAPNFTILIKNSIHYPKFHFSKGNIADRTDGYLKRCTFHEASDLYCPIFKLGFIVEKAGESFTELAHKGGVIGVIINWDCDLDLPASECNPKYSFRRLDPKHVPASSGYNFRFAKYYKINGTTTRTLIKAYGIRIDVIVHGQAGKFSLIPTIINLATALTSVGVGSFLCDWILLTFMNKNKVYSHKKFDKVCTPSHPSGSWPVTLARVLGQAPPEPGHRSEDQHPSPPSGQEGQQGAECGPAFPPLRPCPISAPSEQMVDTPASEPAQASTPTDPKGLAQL
Experiment: Intracellular calcium measurement, antagonist activity at human P2X2/3 receptors (hP2X23 1321N1), Fluo8
Format: cell-based
Settings: column 4); 1321N1 cells, human P2X2/3, Fluo8, agonist ATP at EC50; read-out: 4) hP2X2/3 IC50 [nM] (1321N1)
observation.type: IC50 (nM)
Express your answer in nM, writing the number without its unit.

Exercise: What measured IC50 goes with `CC(C)N1Cc2c(n(CC(=O)Nc3ccc(F)cn3)c3cc(C(=O)Nc4ccccc4F)nn3c2=O)C1=O` ?
Key: 3950

Exercise: What measured IC50 goes with `COC[C@H](C)N1Cc2c(n(CC(=O)Nc3ccc(F)cn3)c3cc(C(=O)NCC(F)F)nn3c2=O)C1=O` ?
Key: 9800

Exercise: What measured IC50 goes with `CC(C)N1Cc2c(n(CC(=O)Nc3ccc(F)cn3)c3cc(-c4ccncc4)nn3c2=O)C1=O` ?
Key: 2110

Exercise: What measured IC50 goes with `CC(C)(C)c1cc2n(CC(=O)Nc3ccc(F)cn3)c3c(c(=O)n2n1)CN(CCO)C3=O` ?
Key: 6850

Exercise: What measured IC50 goes with `Cc1cc2n(CC(=O)Nc3ccc(F)cn3)c3c(c(=O)n2n1)CN([C@@H](C)C1CC1)C3=O` ?
Key: 8700

Exercise: What measured IC50 goes with `CC(C)N1Cc2c(n(CC(=O)Nc3ccc(F)cn3)c3cc(C(C)(C)C)nn3c2=O)C1=O` ?
Key: 4900

Exercise: What measured IC50 goes with `CCc1cc2n(CC(=O)Nc3ccc(F)cn3)c3c(c(=O)n2n1)CN(Cc1ccc(F)cc1)C3=O` ?
Key: 2550

Exercise: What measured IC50 goes with CC(C)N1Cc2c(n(CC(=O)Nc3ccc(F)cn3)c3cc(C4CCN(S(C)(=O)=O)C4)nn3c2=O)C1=O (racemic) ?
Key: 6650

Exercise: What measured IC50 goes with `COC[C@H](C)N1Cc2c(n(CC(=O)Nc3ccc(F)cn3)c3cc(C(=O)N4CCC4)nn3c2=O)C1=O` ?
Key: 3200

###

Target: human P2X2/3 receptors (Homo sapiens, UniProt P56373+Q9UBL9)
Construct: expressed in transfected cells; host or cells: human astrocytoma 1321N1 (1312N1 [sic])
Experiment: Intracellular calcium measurement, antagonist activity at human P2X2/3 receptors (hP2X23 1321N1), Fluo8
Assay type: cell-based
Conditions: column 4); 1321N1 cells, human P2X2/3, Fluo8, agonist ATP at EC50; read-out: 4) hP2X2/3 IC50 [nM] (1321N1)
Could you please report measured IC50 for the items listed next?

Exercise: What IC50 appears in the records for this compound with human P2X2/3 receptors (Homo sapiens, UniProt P56373+Q9UBL9)? CC(C)N1Cc2c(n(CC(=O)Nc3ccc(F)cn3)c3cc(C(=O)NC(C)(C)C)nn3c2=O)C1=O [Example 186]
Key: > 32000 nM

Exercise: What IC50 appears in the records for this compound with human P2X2/3 receptors (Homo sapiens, UniProt P56373+Q9UBL9)? CCc1cc2n(CC(=O)Nc3ccc(F)cn3)c3c(c(=O)n2n1)CN(CC1CCOCC1)C3=O [Example 83]
Key: > 32000 nM

Exercise: What IC50 appears in the records for this compound with human P2X2/3 receptors (Homo sapiens, UniProt P56373+Q9UBL9)? CC(C)N1Cc2c(n(CC(=O)Nc3ccc(F)cn3)c3cc(C4CCNC4)nn3c2=O)C1=O.Cl (racemic) [Example 235]
Key: > 66000 nM

Exercise: What IC50 appears in the records for this compound with human P2X2/3 receptors (Homo sapiens, UniProt P56373+Q9UBL9)? COC[C@H](C)N1Cc2c(n(CC(=O)Nc3ccc(F)cn3)c3cc(Cl)nn3c2=O)C1=O [Example 102]
Key: > 22500 nM

Exercise: What IC50 appears in the records for this compound with human P2X2/3 receptors (Homo sapiens, UniProt P56373+Q9UBL9)? CC(C)N1Cc2c(n(CC(=O)Nc3ccccn3)c3cc(C(C)(C)C)nn3c2=O)C1=O [Example 2]
Key: > 22000 nM

Exercise: What IC50 appears in the records for this compound with human P2X2/3 receptors (Homo sapiens, UniProt P56373+Q9UBL9)? CCc1cc2n(CC(=O)Nc3ccc(F)cn3)c3c(c(=O)n2n1)CN(C1CCOC1)C3=O (racemic) [Example 71]
Key: > 23000 nM

Exercise: What IC50 appears in the records for this compound with human P2X2/3 receptors (Homo sapiens, UniProt P56373+Q9UBL9)? COCC(C)N1Cc2c(n(CC(=O)Nc3ccc(F)cn3)c3cc(C(=O)N(C)C)nn3c2=O)C1=O (racemic) [Example 140]
Key: > 20900 nM
